Quick reference: EC50 of the listed items.
test system: HT22 cells; test: In vitro ischemia assay (HT22 cell IAA assay, MTT); type: cell-based, mouse; details: Mus musculus, HT-22, HT22 cells, 20 μM IAA; read-out: HT22 Cell IAA assay EC50
QUANTITY: EC50 (µM)

- COc1cc(-c2oc3c(ccc4ccccc43)c(=O)c2O)ccc1OCc1ccccc1: 0.081
- O=c1c(O)c(-c2ccc(O)c(O)c2)oc2ccccc12 [CMS-04P, reference compound]: 0.5
- O=C1/C(=C/c2ccc(O)c(O)c2)Oc2cc(O)ccc21: 0.049
- O=c1cc(-c2ccc(O)c(O)c2)oc2ccccc12: 0.5
- O=c1cc(-c2ccccc2)oc2cc(O)c(O)c(O)c12 [Baicalein, 5,6,7-trihydroxyflavone, reference compound]: 1.5
- O=c1c(O)c(-c2ccc(O)c(O)c2)oc2cc(O)ccc12 [Fisetin, 3,7,3′,4′-Tetrahydroxyflavone, reference compound]: 3
- O=C(/C=C/c1ccc(O)c(O)c1)O[C@@H]1C[C@](O)(C(=O)O)C[C@@H](O)[C@H]1O: 5
- COc1cc(-c2oc3cc(C)c(C)cc3c(=O)c2O)ccc1CCl: 0.134
- COc1cc(-c2oc3cc(C)c(C)cc3c(=O)c2O)ccc1OCc1ccccc1: 0.167
- O=C(/C=C/c1ccc(N2CCCC2)c(O)c1)c1ccc2ccccc2c1O: 0.07
- O=c1cc(-c2ccc(O)c(O)c2)oc2ccc3ccccc3c12: 0.08
- CCOc1cc(-c2ccc(O)c(O)c2)nc2ccccc12: 0.021
- CCCc1ccc2oc(-c3ccc(O)c(O)c3)c(O)c(=O)c2c1: 0.038
- COc1cc(/C=C/C(=O)c2ccc3ccccc3c2O)ccc1N1CCCC1: 0.085
- O=c1c(O)c(-c2ccc(N3CCCC3)cc2)oc2c1ccc1ccccc12: 0.071
- CC(C)Oc1cc(-c2ccc(O)cc2O)nc2ccccc12: 0.21
- CC(C)Oc1cc(-c2ccc(O)c(O)c2)nc2ccccc12: 0.021
- Cc1cc(O)c(C(=O)/C=C/c2ccc(O)c(O)c2)cc1C: 0.05
